# System: Solanum nigrum
# ASSAY COMMENT: Example B2 herbicidal action, post-emergence, pots in glasshouse, damage score 0-10
# Format: in vivo
# COND: application post-emergence, rate 1000 g/ha, evaluated after 13 days
Hi! Could you tag entries with SOLNI damage score (10=total damage to plant; 0=no damage to plant) below 8 as 1, and those at or above as 0? Much appreciated.

INSERT INTO measurements (chemical_structure, assigned_label) VALUES
  ('CCN1c2nccnc2C(O)=C(c2ccccc2OC(F)(F)F)S1(=O)=O', 0),
  ('CCOC(=O)OC1=C(c2cc(C)ccc2C(F)(F)F)S(=O)(=O)N(CC(F)F)c2nccnc21', 0),
  ('CCN1c2nccnc2C(OC(=O)C(C)C)=C(c2cccc(C(F)(F)F)c2Cl)S1(=O)=O', 1),
  ('O=S1(=O)C(c2ccc(Br)cc2C(F)(F)F)=C(O)c2nccnc2N1CC(F)F', 0),
  ('CCOC(=O)OC1=C(c2cc(Cl)cc(C(F)(F)F)c2)S(=O)(=O)N(CC(F)F)c2nccnc21', 1);

Exam item: Given O=[N+]([O-])c1ccccc1C1=C(O)c2nccnc2N(CC(F)F)S1(=O)=O , is recorded SOLNI damage score (10=total damage to plant; 0=no damage to plant) strictly lower than 8?
Marked response: 1

Exam item: Given CC(C)(C)C(=O)OC1=C(c2c(Cl)cccc2Cl)S(=O)(=O)N(CC(F)F)c2nccnc21 , is recorded SOLNI damage score (10=total damage to plant; 0=no damage to plant) strictly lower than 8?
Marked response: 1

Exam item: Given CCOC(=O)c1ccc(C(F)(F)F)nc1C1=C(OC(=O)SC)c2nccnc2N(CCC(F)F)S1(=O)=O , is recorded SOLNI damage score (10=total damage to plant; 0=no damage to plant) strictly lower than 8?
Marked response: 1

Exam item: Given CC(C)(C)C(=O)OC1=C(c2c(F)ccc(Cl)c2Cl)S(=O)(=O)N(CC(F)F)c2nccnc21 , is recorded SOLNI damage score (10=total damage to plant; 0=no damage to plant) strictly lower than 8?
Marked response: 0

Exam item: Given O=S1(=O)C(c2c(Cl)ccc(Cl)c2Cl)=C(O)c2nccnc2N1CC(F)F , is recorded SOLNI damage score (10=total damage to plant; 0=no damage to plant) strictly lower than 8?
Marked response: 0

Exam item: Given CCN1c2nccnc2C(OC(=O)C(C)C)=C(c2c(Cl)ccc(Cl)c2C(F)(F)F)S1(=O)=O , is recorded SOLNI damage score (10=total damage to plant; 0=no damage to plant) strictly lower than 8?
Marked response: 1

Exam item: Given O=S1(=O)C(c2c(Cl)cccc2C(F)(F)F)=C(O)c2nccnc2N1CC(F)F , is recorded SOLNI damage score (10=total damage to plant; 0=no damage to plant) strictly lower than 8?
Marked response: 0

Exam item: Given CC(C)C(=O)OC1=C(c2c(F)cccc2C(F)(F)F)S(=O)(=O)N(CC(F)F)c2nccnc21 , is recorded SOLNI damage score (10=total damage to plant; 0=no damage to plant) strictly lower than 8?
Marked response: 0

Exam item: Given CCN1c2nccnc2C(O)=C(c2ccc(Cl)cc2C(F)(F)F)S1(=O)=O , is recorded SOLNI damage score (10=total damage to plant; 0=no damage to plant) strictly lower than 8?
Marked response: 0

The origin of these recorded values is patent US8133849B2.
